The measurements presented in this section are drawn from paper PMC6027465.

# target_entity: hCA I (Homo sapiens)
# Construct: recombinant
# Sequence (P00915 2-261): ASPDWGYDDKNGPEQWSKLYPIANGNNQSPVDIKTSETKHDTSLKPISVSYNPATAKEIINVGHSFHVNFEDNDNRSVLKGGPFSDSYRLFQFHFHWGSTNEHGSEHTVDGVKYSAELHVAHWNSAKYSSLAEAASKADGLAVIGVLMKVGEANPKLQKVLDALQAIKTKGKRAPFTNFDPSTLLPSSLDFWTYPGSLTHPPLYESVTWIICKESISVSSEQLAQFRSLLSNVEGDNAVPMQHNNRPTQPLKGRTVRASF
Task for the reader: assign each of the following compounds its reported Ki.
Give me the value, and tack the unit on after it.

Prompt: Find Ki (hCA I (Homo sapiens)) for the entry COC(=O)C(C)NC(=O)c1ccc(S(N)(=O)=O)cc1 (racemic) [3j, Methyl (4-Sulfamoylbenzoyl)-DL-Alaninate]
Response: 85.3 nM

Prompt: Ki of COC(=O)C(NC(=O)c1ccc(S(N)(=O)=O)cc1)C(C)C (racemic) [3f, Methyl (4-Sulfamoylbenzoyl)-DL-Valinate] on hCA I (Homo sapiens)?
Response: 57.8 nM

Prompt: Write down the reported Ki of COC(=O)[C@H](CC(C)C)NC(=O)c1ccc(S(N)(=O)=O)cc1 [3h, Methyl (4-Sulfamoylbenzoyl)-L-Leucinate] , test system: hCA I (Homo sapiens).
Response: 5.6 nM
